Tested on: HCV genotype 1b replicon
Assay: HCV replicon assay
Assay type: cell-based
Settings: Hepatitis C virus, Table 7; read-out: EC50
pEC50: −log10 of the molar value.

compound	pEC50
CC(C)OC(=O)[C@@H](C)N[P@@](=O)(OC[C@H]1O[C@@H](n2ccc(=O)[nH]c2=O)[C@](C)(F)[C@@H]1O)Oc1ccccc1 [Compound (804a) Ia (RP isomer)]	< 4.30

* * *

Experiment: Liver triphosphate and plasma prodrug and nucleoside PK after single oral dose (Example 5)
Type: in vivo, Cynomolgus monkeys
Conditions: oral 10 mg/kg; normalized to 1 μmol/kg dose; read-out: Plasma nucleoside Cmax

compound	Cmax [µM]
CC(C)OP1(=O)OC[C@H]2O[C@@H](n3ccc(=O)[nH]c3=O)[C@](C)(Cl)[C@@H]2O1 (single isomer, unassigned; diastereomer 2) [37 Diastereomer 2]	0.051
